assay: qHTS for Inhibitors of human tyrosyl-DNA phosphodiesterase 1 (TDP1): qHTS in cells in presence of CPT; details: chicken DT40 Tdp1-/-;hTDP1 cells + 20 nM CPT, ATP luminescence, 48 h; series mostly up to 46.2 µM; note: nearly all actives have a fitted effect of over 55% in size
The campaign covered roughly 420,000 compounds. About 50,000 (12%) were called active. About 26% were inconclusive and are not listed. Calls come from the whole dose curve; as a rule, active = well fitted inhibition curve with a large enough effect; inconclusive = small, poorly fitted or top-dose-only effect; inactive = flat fitted curve, though single readings scatter. This excerpt belongs to a sample that is enriched for actives.
Valid outcomes are listed here; reply with one: Yes (active), No (inactive)

Problem: Per the assay record, what outcome was assigned to Cc1cc2c3ccccc3[nH]c(=O)n2n1 ?
Solution: No

Problem: Query: recorded result category for Cc1noc(C)c1-c1cc(NCc2cccnc2)ncn1 in this test
Solution: No

Problem: How was O=C(O)c1ccccc1C(=O)Nc1nc(-c2ccccc2)cs1 classified in this test?
Solution: No

Problem: In this assay, the call recorded for CC(=O)Nc1ccc(-c2csc(NC=C3C(=O)OC(C)(C)OC3=O)n2)cc1 was what?
Solution: No

Problem: // return assay outcome for Cc1csc(NC(=O)Nc2ccccc2[N+](=O)[O-])n1
Solution: No

Problem: # outcome recorded in this test, key = Cc1ccc(Cn2c(C)c(C(=O)NCc3ccccc3C(F)(F)F)sc2=O)cc1
Solution: No

Problem: Which outcome did this test record for the compound COc1ccccc1CNC(=O)c1cc(-c2cc(Cl)ccc2C)n[nH]1 ?
Solution: Yes

Problem: Identify the outcome logged in this assay for the compound shown: Cc1cccc(N=C2NN=C(c3c[nH]c4ccccc34)CS2)c1
Solution: No

Problem: Outcome? COc1ccc(OCCCC(=O)OC(C)C(=O)Nc2ccccc2[N+](=O)[O-])cc1 (centres undefined)
Solution: No

Problem: Tell me the recorded outcome of this test for CC(=O)Nc1ccc(-c2csc(NC(=O)Nc3ccccc3)n2)cc1 .
Solution: Yes

Problem: Given COc1ccccc1CNC(=O)c1cc(-c2cc(F)ccc2OC)n[nH]1 , state the outcome it received in this test.
Solution: No

Problem: Would you mind telling me which call this test gave Cn1c2ccccc2c2cc(/C=C(\NC(=O)c3ccccc3)C(=O)NCC(=O)O)ccc21 ?
Solution: No

Problem: Outcome logged for COc1ccccc1CNC(=O)COC(=O)c1sc(C)nc1C in this assay:
Solution: No

Problem: Test call, this compound: C/C(N)=C(/C#N)C(=O)COC(=O)CNS(=O)(=O)c1ccc(C)cc1
Solution: No
